Taken from PubChem BioAssay.

# EXPERIMENT SUMMARY: RPL19A-GFP modulators, yeast TOR pathway, confirmation, cell-based, S. cerevisiae, flow cytometry, cherry picks, mother/daughter gates (AID 2270)
# MEASUREMENT PARAMETERS: S. cerevisiae RPL19A-GFP strain, 3 h, measured here: daughter cell gate, at 10 µM, stronger effect = lower value, 100 = same GFP as DMSO wells
MEASUREMENT NAME: GFP response vs DMSO (%)
Your answer should be a plain number; it is taken to be in %.

These recorded examples may help you get a feel for the data.
C/C(=N/NC(=O)c1ccc(C(C)(C)C)cc1)c1ccccn1    107
CC1CN(c2nc3ccccn3c(=O)c2/C=C(\C#N)C(N)=O)CC(C)O1 (stereo not drawn)    97.3

Shift focus to the following entry.
Q: # lookup: GFP response vs DMSO of `COc1cc(NC(=O)c2ccc(Br)cc2)ccc1NC(=O)c1cc2ccccc2o1`
A: 99

* * *

Quick reference for GFP response vs DMSO among some compounds
# EXPERIMENT SUMMARY: modulators of CIT2-GFP expression in yeast, confirmation, flow cytometry, second cherry pick, single plex (AID 2624);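 also: median green fluorescence per well over all gated yeast cells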
# MEASUREMENT PARAMETERS: S. cerevisiae CIT2-GFP strain, 3 h, at 10 µM, stronger effect = higher value, DMSO control wells read 100%
Some of the results follow. Activity calls are given as the source filed them.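 The calls were made as follows: active = GFP response vs DMSO above about 150% (limit read from the data); inconclusive = fewer than 70 events counted for a yeast strain; inactive = the rest.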

These recorded examples may help you get a feel for the data.
COc1ccc2nc(N3CCN(C(=O)c4ccc([N+](=O)[O-])o4)CC3)sc2c1    243% (active)
CCn1c(SCCC(C)C)nnc1-c1c[nH]c2ccccc12    100% (inactive)
COc1ccc(C)cc1NC(=O)CSc1nc(SC)ns1    102% (inactive)
Cc1ccc2nc(N(CCN(C)C)C(=O)C3=COCCO3)sc2c1    103% (inactive)
Clc1cccc(CN2COc3c(cc(Cl)c4cccnc34)C2)c1    95% (inactive)
C#CCOCCOCCOCCNc1nc(N2CCN(C(=O)CCCCCCCCCCNC(=O)[C@H](CCCCN)n3cc(C)nn3)CC2)nc(N2CCN(C(=O)CCCCCCCCCCNC(=O)[C@H](CO)n3cc(CCCSC)nn3)CC2)n1    110% (inactive)
CC1=C/C(=N\OS(=O)(=O)c2ccccc2)C=CC1=O    109% (inactive)

Shift focus to the following entry.
Q: # lookup: GFP response vs DMSO of `CCCn1nc(C(=O)NNC(=O)CCOc2ccccc2OCC)c2ccccc2c1=O`
A: 121% (inactive)

* * *

# EXPERIMENT SUMMARY: inhibitors of CD8+ T cell-vesicle binding, pilot screen, LFA-1/ICAM-1 modulator project, MLPCN validation set, flow cytometry (AID 2523)
# MEASUREMENT PARAMETERS: 2C mouse CD8+ T cells, at 7 µM, stronger effect = lower value; measured here: CD8+/vesicle+ event percentage
MEASUREMENT NAME: double positive events (%)
Your answer should be a plain number; it is taken to be in %.

These recorded examples may help you get a feel for the data.
C=CCc1cc(Cl)ccc1OCCOCCN(C)C    60
CC(C)[N+](C)(CCOC(=O)C1c2ccccc2Oc2ccccc21)C(C)C    56
COc1cc(OC)cc(C(=O)N[C@@H](CCSC)c2nc3ccccc3[nH]2)c1    49.2
COc1ccc(CCN(C)CCCC(C#N)(c2ccc(OC)c(OC)c2)C(C)C)cc1OC (stereo not drawn)    63.8
COc1ccc2c(c1)[nH]c1c(=O)n(Cc3ccccn3)cnc12    64
CCOC(=O)C1=C(N)Oc2c(oc(CO)cc2=O)C1c1ccc(F)c(F)c1 (stereo not drawn)    56.7
Cc1ccc(NCCC(=O)c2ccccc2)cc1Cl    63
Cc1ncc([N+](=O)[O-])n1CC(C)O (stereo not drawn)    52.2
CCCCNC(=O)NS(=O)(=O)c1ccc(C)cc1    56.1
COC1=CC(=O)CC(C)C12Oc1c(Cl)c(OC)cc(OC)c1C2=O (stereo not drawn)    42.3

Q: # lookup: double positive events of CC1(C)C2CCC1(C)C(OCC[N+](C)(C)CC(=O)OC1CCCCC1)C2 (stereo not drawn)
A: 70

Q: # lookup: double positive events of `Cc1ccccc1OCCSc1nc2ncnc(N)c2[nH]1`
A: 51.9

Q: # lookup: double positive events of COc1c(C)cc(C(=O)C2CCCN(Cc3ccc(Oc4ncccn4)cc3)C2)cc1C (stereo not drawn)
A: 56.4

Q: # lookup: double positive events of `CCCCNc1cc(C(=O)O)cc(S(N)(=O)=O)c1Oc1ccccc1`
A: 52.3

Q: # lookup: double positive events of C=CCN1C(=O)c2oc3ccccc3c(=O)c2C1c1ccc(O)c(OC)c1 (stereo not drawn)
A: 60.1

Q: # lookup: double positive events of `O=P(c1ccccc1)(c1ccccc1)c1nc(-c2ccc(Cl)cc2)oc1N1CCOCC1`
A: 57.7

Q: # lookup: double positive events of `CC(C)c1ccccc1OCCNC(=S)NC(=O)c1cccnc1`
A: 62.4

Q: # lookup: double positive events of `CCOc1cc(C)cc2oc(=O)cc(-c3ccccc3)c12`
A: 54.7

* * *

# EXPERIMENT SUMMARY: RPL19A-GFP modulators, yeast TOR pathway, confirmation, cell-based, S. cerevisiae, flow cytometry, cherry picks, mother/daughter gates (AID 2270)
# MEASUREMENT PARAMETERS: S. cerevisiae RPL19A-GFP strain, 3 h, at 10 µM, stronger effect = lower value, 100 = same GFP as DMSO wells
MEASUREMENT NAME: GFP response vs DMSO (%)
Your answer should be a plain number; it is taken to be in %.

These recorded examples may help you get a feel for the data.
COc1cc(NC(=O)c2cccc([N+](=O)[O-])c2)ccc1NC(=O)c1cc2ccccc2o1    98
CC1(C)CC(=O)C2=C(C1)OC1=C(C(=O)CC(C)(C)C1)C2c1ccc(O)cc1O    104
O=C(NOC(=O)c1ccccc1)c1ccccc1    108
Cc1c(C(=O)NCCSCc2cccc(C(F)(F)F)c2)cnn1-c1ccc(F)cc1    102
CCCc1[nH]nc2c1C(c1ccc(OCCN3CCOCC3)c(OCC)c1)C(C#N)=C(N)O2 (configuration not stated)    98.4

Q: # lookup: GFP response vs DMSO of `Cc1cc(N2CCC(C)CC2)n2ncc(-c3ccccc3)c2n1`
A: 99.9

Q: # lookup: GFP response vs DMSO of `COc1ccc(Cc2nnc(NC(=O)c3ccccc3F)s2)cc1`
A: 97.6

* * *

# EXPERIMENT SUMMARY: modulators of CIT2-GFP expression in yeast, confirmation, S. cerevisiae, GFP fusion, cherry picks, mother/daughter gates (AID 2274)
# MEASUREMENT PARAMETERS: S. cerevisiae CIT2-GFP strain, flow cytometry, 3 h; measured here: mother cell gate; at 10 µM; stronger effect = higher value
MEASUREMENT NAME: GFP response, % of DMSO (%)
Your answer should be a plain number; it is taken to be in %.

These recorded examples may help you get a feel for the data.
Cc1ccc(Oc2nc(-c3ccccn3)nc3ccccc23)cc1    90.7
CCN1C(=O)/C(=C\C(=O)c2cccs2)c2cc(Br)ccc21    92.1

Q: # lookup: GFP response, % of DMSO of `COC(=O)Cc1csc(Nc2ccc(F)c(Cl)c2)n1`
A: 107

Q: # lookup: GFP response, % of DMSO of `CCOc1cc(/C=C2/N=C(c3ccc4c(c3)OCO4)OC2=O)ccc1OC(C)=O`
A: 98.1

Q: # lookup: GFP response, % of DMSO of `CCCNC(=O)COC(=O)c1ccc(S(=O)(=O)N2CCCC2)cc1`
A: 78.8

Q: # lookup: GFP response, % of DMSO of `O=C1ON=C(c2ccccc2)/C1=C\c1ccco1`
A: 70.8

Q: # lookup: GFP response, % of DMSO of COc1ccc(N2CCN(C(=O)c3ccc(OCC4CCCO4)cc3)CC2)cc1 (stereo unspecified)
A: 99.3

Q: # lookup: GFP response, % of DMSO of CCCc1[nH]nc2c1C(c1ccc(OC(=O)c3ccco3)cc1)C(C#N)=C(N)O2 (stereo unspecified)
A: 105

Q: # lookup: GFP response, % of DMSO of `Cc1ccc(CN2CCSc3sccc3C2=O)cc1`
A: 76

Q: # lookup: GFP response, % of DMSO of `Cc1ccc(NC(=O)c2nc(S(=O)(=O)Cc3ccccc3)ncc2Cl)cc1`
A: 85.8

Q: # lookup: GFP response, % of DMSO of `COc1ccccc1-c1noc(-c2cccnc2)n1`
A: 82.6

* * *

# EXPERIMENT SUMMARY: modulators of CIT2-GFP expression in yeast, confirmation, S. cerevisiae, GFP fusion, cherry picks, mother/daughter gates (AID 2274)
# MEASUREMENT PARAMETERS: S. cerevisiae CIT2-GFP strain, flow cytometry, 3 h; measured here: mother cell gate; at 10 µM; stronger effect = higher value
MEASUREMENT NAME: GFP response, % of DMSO (%)
Your answer should be a plain number; it is taken to be in %.

These recorded examples may help you get a feel for the data.
CCOc1cc(/C=C2\N=C(C)OC2=O)cc(Br)c1OCC(=O)OC    94.5
COc1cc(/C=C2/C(=O)ON=C2c2ccccc2)ccc1O    112
Cc1cccc(N=c2c([N+](=O)[O-])nn(-c3ccc(Cl)cc3)n2O)c1    108

Q: # lookup: GFP response, % of DMSO of CCOc1ccc(C(C)=O)cc1N1C(=O)C2C3C=CC(O3)C2C1=O (stereo not drawn)
A: 104

Q: # lookup: GFP response, % of DMSO of `COc1ccc(-c2nn(-c3ccccc3)cc2C(=O)NC(=S)NNC(=O)c2ccncc2)cc1`
A: 104

Q: # lookup: GFP response, % of DMSO of `O=C(c1ccc2ccccc2c1)N1CCN(c2ccc(O)cc2)CC1`
A: 104

Q: # lookup: GFP response, % of DMSO of `Cc1ccccc1CN1CCSc2sccc2C1=O`
A: 98.7

Q: # lookup: GFP response, % of DMSO of `O=C(Nc1cccc(O)c1)c1ccc(Br)cc1`
A: 100

Q: # lookup: GFP response, % of DMSO of `CCn1c(=O)c(C(=O)NCCc2ccccc2)c(O)c2ccccc21`
A: 98.2

Q: # lookup: GFP response, % of DMSO of CCCc1[nH]nc2c1C(c1cccnc1)C(C#N)=C(N)O2 (stereo not drawn)
A: 99.7

Q: # lookup: GFP response, % of DMSO of `Cc1cc(O)c(C(=O)/C=C/c2ccccc2)c(=O)o1`
A: 95.5

Q: # lookup: GFP response, % of DMSO of `CCCCCCc1cc2cc(-c3nnc(-c4ccccc4OC)o3)c(=O)oc2cc1O`
A: 98.2

Q: # lookup: GFP response, % of DMSO of CCOC(=O)C1CCCN(c2nc3c(C)cccn3c(=O)c2/C=C(\C#N)C(=O)NCc2ccco2)C1 (stereo not drawn)
A: 100

Q: # lookup: GFP response, % of DMSO of `O=[N+]([O-])/C=C/c1cn(Cc2ccc(F)cc2)c2ccccc12`
A: 101

Q: # lookup: GFP response, % of DMSO of `COc1ccc(OC)c(/C=C/C(=O)c2ccc(Cl)cc2)c1`
A: 101

Q: # lookup: GFP response, % of DMSO of `C=CCn1c(=N)c(C#N)cc2c(=O)n3ccccc3nc21`
A: 87.8

Q: # lookup: GFP response, % of DMSO of `O=C(c1ccccn1)c1conc1C(=O)c1ccc(Br)cc1`
A: 147

Q: # lookup: GFP response, % of DMSO of `O=C(O)c1ccccc1C(=O)N1CCN(c2ccccc2)CC1`
A: 102

Q: # lookup: GFP response, % of DMSO of `CCc1cc(=O)oc2c(CN3CCCC3)c(O)c(Cl)cc12`
A: 102

Q: # lookup: GFP response, % of DMSO of `O=C(CN1C(=O)c2cccc3cccc(c23)C1=O)N1CCCCCC1`
A: 101
